target: CYP3A4 (Homo sapiens, UniProt P08684); test: In vitro metabolism using human cytochrome P450 enzymes (CYP3A4); settings: Cyp 3A4, 60 min, mean
Sequence (P08684 whole entry): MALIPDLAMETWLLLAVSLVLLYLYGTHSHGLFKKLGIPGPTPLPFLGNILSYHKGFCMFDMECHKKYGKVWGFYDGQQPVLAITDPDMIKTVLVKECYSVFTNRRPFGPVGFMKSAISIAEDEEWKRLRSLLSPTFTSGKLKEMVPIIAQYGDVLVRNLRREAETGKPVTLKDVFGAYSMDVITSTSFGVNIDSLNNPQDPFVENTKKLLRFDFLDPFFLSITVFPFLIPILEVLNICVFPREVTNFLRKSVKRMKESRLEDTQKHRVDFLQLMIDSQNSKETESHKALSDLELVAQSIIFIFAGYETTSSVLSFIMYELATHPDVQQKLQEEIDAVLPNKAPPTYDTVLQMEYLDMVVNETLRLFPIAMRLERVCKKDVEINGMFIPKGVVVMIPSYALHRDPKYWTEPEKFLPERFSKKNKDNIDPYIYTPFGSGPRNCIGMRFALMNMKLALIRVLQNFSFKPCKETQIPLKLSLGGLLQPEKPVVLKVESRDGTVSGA
QUANTITY_MEASURED: Percent Remaining (%) 60 min
# value in %; strip the unit string

Examples with answers:
| COMPOUND | Percent Remaining (%) 60 min |
| --- | --- |
| [2H]C1(C(N)=O)CCCc2c1[nH]c1ccc(Cl)cc21 (stereo not shown) [Example 2] | 53.05 |
| NC(=O)C1CCCc2c1[nH]c1ccc(Cl)cc21 (stereo not shown) [Example 1] | 51.13 |

Query: For the compound [2H]C1([2H])c2c([nH]c3ccc(Cl)cc23)C(C(N)=O)C([2H])([2H])C1([2H])[2H] (stereo not shown) [Example 3] , report Percent Remaining (%) 60 min.
Result: 60.39

====

Recorded Clint values for a group of compounds are listed next.
target: CYP1A2 (Homo sapiens, UniProt P05177); construct: purchased BD Biosciences, San Jose, Calif; assay: In vitro metabolism using human cytochrome P450 enzymes (CYP1A2); assay type: in vitro ADME; settings: Cyp 1A2
Sequence (P05177 whole entry): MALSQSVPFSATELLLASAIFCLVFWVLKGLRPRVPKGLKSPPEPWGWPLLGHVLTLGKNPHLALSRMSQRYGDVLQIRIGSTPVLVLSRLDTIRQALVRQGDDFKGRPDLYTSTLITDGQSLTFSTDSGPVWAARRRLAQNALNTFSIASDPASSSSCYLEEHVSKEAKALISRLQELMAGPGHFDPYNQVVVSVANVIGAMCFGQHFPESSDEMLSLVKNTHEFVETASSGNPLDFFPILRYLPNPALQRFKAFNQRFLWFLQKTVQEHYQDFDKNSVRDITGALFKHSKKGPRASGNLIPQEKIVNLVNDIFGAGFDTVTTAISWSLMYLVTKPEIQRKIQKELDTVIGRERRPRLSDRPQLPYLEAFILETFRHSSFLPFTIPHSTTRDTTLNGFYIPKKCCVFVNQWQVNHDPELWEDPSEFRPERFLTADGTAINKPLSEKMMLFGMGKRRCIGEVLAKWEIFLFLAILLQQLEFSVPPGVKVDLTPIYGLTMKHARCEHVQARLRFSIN
Write the answer as a number in mL/min/pmol, unit excluded.

| COMPOUND | Clint / mL/min/pmol |
| --- | --- |
| [2H]C1([2H])c2c([nH]c3ccc(Cl)cc23)C(C(N)=O)C([2H])([2H])C1([2H])[2H] (stereo not shown) | 0.00019 |

Query: Hello, please tell me recorded Clint for this one: CCOc1ccc(NC(C)=O)cc1
Result: 0.00018

Query: Report Clint, nothing else, for this compound: NC(=O)C1CCCc2c1[nH]c1ccc(Cl)cc21 (stereo not shown)
Result: 0.0002

Query: Check the records and state Clint for [2H]C1(C(N)=O)CCCc2c1[nH]c1ccc(Cl)cc21 (stereo not shown)
Result: 0.0002

====

experiment: In vitro human liver microsomal stability assay; type: in vitro ADME; settings: human liver microsomes 2 mg/mL, 1 μM compound, 0 min, mean
QUANTITY_MEASURED: Percent Remaining (%) 0 min
Give the quantity in %, number only.

Some entries whose results are on file:
| COMPOUND | UNIT_SPEC | VALUE |
| --- | --- | --- |
| NC(=O)C1CCCc2c1[nH]c1ccc(Cl)cc21 (stereo not shown) | % | 100 |
| [2H]C1([2H])c2c([nH]c3ccc(Cl)cc23)C(C(N)=O)C([2H])([2H])C1([2H])[2H] (stereo not shown) | % | 100 |
| [2H]C1(C(N)=O)CCCc2c1[nH]c1ccc(Cl)cc21 (stereo not shown) | % | 100 |

Query: State its Percent Remaining (%) 0 min: O=C(c1ccc(F)cc1)C1CCN(CCn2c(=O)[nH]c3ccccc3c2=O)CC1
Result: 100

====

assay: In vitro human liver microsomal stability assay; assay type: in vitro ADME; details: human liver microsomes 2 mg/mL, 1 μM compound, 120 min, mean
QUANTITY_MEASURED: Percent Remaining (%) 120 min
Field: numeric (%). Do not append units.

Illustrative cases are given below, each with its answer.
| COMPOUND | Percent Remaining (%) 120 min |
| --- | --- |
| [2H]C1(C(N)=O)CCCc2c1[nH]c1ccc(Cl)cc21 (stereo not shown) [Example 2] | 59.95 |
| [2H]C1([2H])c2c([nH]c3ccc(Cl)cc23)C(C(N)=O)C([2H])([2H])C1([2H])[2H] (stereo not shown) [Example 3] | 52.83 |
| NC(=O)C1CCCc2c1[nH]c1ccc(Cl)cc21 (stereo not shown) [Example 1] | 52.94 |

Please turn your attention to the following entry.
Query: Supply Percent Remaining (%) 120 min value. Item: O=C(c1ccc(F)cc1)C1CCN(CCn2c(=O)[nH]c3ccccc3c2=O)CC1 [Ketanserin]
Result: 26.52

====

molecular target: CYP3A4 (Homo sapiens, UniProt P08684); test: In vitro metabolism using human cytochrome P450 enzymes (CYP3A4); conditions: Cyp 3A4, 45 min, mean
QUANTITY_MEASURED: Percent Remaining (%) 45 min
API: value field is a number in %; no unit string.

| MOLECULE | TARGET_UNDER_TEST | Percent Remaining (%) 45 min |
| --- | --- | --- |
| [2H]C1(C(N)=O)CCCc2c1[nH]c1ccc(Cl)cc21 (stereo not shown) | CYP3A4 (Homo sapiens, UniProt P08684) | 54.63 |

Query: Given the molecule NC(=O)C1CCCc2c1[nH]c1ccc(Cl)cc21 (stereo not shown) , write its reported Percent Remaining (%) 45 min.
Result: 54.21

Query: Provide only the value of recorded Percent Remaining (%) 45 min for [2H]C1([2H])c2c([nH]c3ccc(Cl)cc23)C(C(N)=O)C([2H])([2H])C1([2H])[2H] (stereo not shown)
Result: 63.89

====

target: CYP3A4 (Homo sapiens); assay: In vitro metabolism using human cytochrome P450 enzymes (CYP3A4); details: human, recombinant enzyme, pH 7.4
QUANTITY_MEASURED: half-life at 0.2 mM

Query: Note down half-life at 0.2 mM recorded for Cc1ncc2n1-c1ccc(Cl)cc1C(c1ccccc1F)=NC2
Result: < 5 min

====

Catalogue of molecules with associated Percent Remaining (%) 60 min
assay: In vitro human liver microsomal stability assay; assay type: in vitro ADME; details: human liver microsomes 2 mg/mL, 1 μM compound, 60 min, mean
Give just the numeric value; % need not be written.

| MOLECULE | UNIT_SPEC | Percent Remaining (%) 60 min |
| --- | --- | --- |
| [2H]C1([2H])c2c([nH]c3ccc(Cl)cc23)C(C(N)=O)C([2H])([2H])C1([2H])[2H] (stereo not shown) [Example 3] | % | 70.69 |
| NC(=O)C1CCCc2c1[nH]c1ccc(Cl)cc21 (stereo not shown) [Example 1] | % | 73.66 |
| [2H]C1(C(N)=O)CCCc2c1[nH]c1ccc(Cl)cc21 (stereo not shown) [Example 2] | % | 71.84 |

Turning to the following molecule.
Query: Return reported Percent Remaining (%) 60 min. Input molecule: O=C(c1ccc(F)cc1)C1CCN(CCn2c(=O)[nH]c3ccccc3c2=O)CC1 [Ketanserin]
Result: 44.75

====

# key: entry, value: Percent Remaining (%) 60 min
target: CYP1A2 (Homo sapiens); construct: purchased BD Biosciences, San Jose, Calif; assay: In vitro metabolism using human cytochrome P450 enzymes (CYP1A2); type: in vitro ADME; settings: Cyp 1A2, 60 min, mean
Numbers only here, please. The scale is %.

Example results:
| COMPOUND | VALUE |
| --- | --- |
| NC(=O)C1CCCc2c1[nH]c1ccc(Cl)cc21 (stereo not shown) | 11.55 |
| [2H]C1(C(N)=O)CCCc2c1[nH]c1ccc(Cl)cc21 (stereo not shown) | 12.99 |
| CCOc1ccc(NC(C)=O)cc1 | 15.08 |

Query: Give a short answer stating reported Percent Remaining (%) 60 min for [2H]C1([2H])c2c([nH]c3ccc(Cl)cc23)C(C(N)=O)C([2H])([2H])C1([2H])[2H] (stereo not shown) .
Result: 12.82

====

Below is a list of entries, each paired with its recorded Percent Remaining (%) 120 min w/o NADPH value.
experiment: In vitro human liver microsomal stability assay; format: in vitro ADME; settings: human liver microsomes, 120 min without NADPH, mean
Number only, in %; omit the unit.

| MOLECULE | QUANTITY_MEASURED | UNIT_SPEC | VALUE |
| --- | --- | --- | --- |
| [2H]C1([2H])c2c([nH]c3ccc(Cl)cc23)C(C(N)=O)C([2H])([2H])C1([2H])[2H] (stereo not shown) | Percent Remaining (%) 120 min w/o NADPH | % | 96.74 |

Query: Let me know recorded Percent Remaining (%) 120 min w/o NADPH for O=C(c1ccc(F)cc1)C1CCN(CCn2c(=O)[nH]c3ccccc3c2=O)CC1 , thanks.
Result: 97.70

Query: Indicate its recorded Percent Remaining (%) 120 min w/o NADPH; the molecule in question is [2H]C1(C(N)=O)CCCc2c1[nH]c1ccc(Cl)cc21 (stereo not shown)
Result: 100.36

Query: Tell us which Percent Remaining (%) 120 min w/o NADPH value is on record for NC(=O)C1CCCc2c1[nH]c1ccc(Cl)cc21 (stereo not shown)
Result: 102.02

====

target: CYP3A4 (Homo sapiens, UniProt P08684); test: In vitro metabolism using human cytochrome P450 enzymes (CYP3A4); conditions: Cyp 3A4, 15 min, mean
QUANTITY_MEASURED: Percent Remaining (%) 15 min

| COMPOUND | VALUE |
| --- | --- |
| [2H]C1([2H])c2c([nH]c3ccc(Cl)cc23)C(C(N)=O)C([2H])([2H])C1([2H])[2H] (stereo not shown) | 69.80% |
| Cc1ncc2n1-c1ccc(Cl)cc1C(c1ccccc1F)=NC2 | BQL |
| NC(=O)C1CCCc2c1[nH]c1ccc(Cl)cc21 (stereo not shown) | 63.43% |
| [2H]C1(C(N)=O)CCCc2c1[nH]c1ccc(Cl)cc21 (stereo not shown) | 69.07% |
